- Tested on: Hep3B cells
- experiment: Cell viability / proliferation (WST-1 assay), Hep3B cells expressing vector, SULF2-WT or SULF2-N491K
- Format: cell-based, Human
- condition-description: Homo sapiens, Hep3B, 48 h, SULF2-WT cells with knockdown of LCN2 by shRNA
result-type: IC50

q: Tell me the measured IC50 of `CNC(=O)c1cc(Oc2ccc(NC(=O)Nc3ccc(Cl)c(C(F)(F)F)c3)cc2)ccn1` , please.
a: 3.95 µM

* * *

- Tested on: Hep3B cells
- experiment: Cell viability / proliferation (WST-1 assay), Hep3B cells expressing vector, SULF2-WT or SULF2-N491K
- Format: cell-based, Human
- condition-description: Hep3B-SULF2-WT cells
result-type: IC50 (µM)
Numbers only, in µM.

q: Can you share its IC50? I mean this molecule: CNC(=O)c1cc(Oc2ccc(NC(=O)Nc3ccc(Cl)c(C(F)(F)F)c3)cc2)ccn1 [Sorafenib]
a: 7.51
